# System: Mycobacterium tuberculosis
# ASSAY_METHOD_TEXT: Cornell - Phenotypic assay to identify agents that inhibit growth of Mycobacterium tuberculosis
# Type: functional
# Design: scale not given: direction of the effect not stated beside the values
# MEASUREMENT_CONTEXT: 10 mM as filed; unlikely as a test dose
Out of some 53,000 compounds screened, about 900 (1.7%) showed an effect of 50% or more. Many of the other results were omitted from the sample, so strong results are more common in it than they were.
OBSERVATION_TYPE: Percent Effect (%)
Provide only the numeric value, understood in %.

# MOLECULE, UNIT_DESCRIPTOR, Percent Effect
measured = [
    ("O=C(NCc1ccco1)[C@H]1C[C@@H]2CCN(c3ncccn3)C[C@H]2O1.O=C(O)C(F)(F)F", "%", 33.78),
    ("Cc1cc(CNc2ccc3nc(C)sc3c2)no1", "%", 23.73),
    ("CCc1nc(NS(=O)(=O)c2cccc(F)c2C)no1", "%", 37.51),
    ("Cc1cnn(CCNCc2ccc(OCc3cccnc3)cc2)c1", "%", -17.94),
]

Ask: Please report the recorded Percent Effect for "CCCNC(=O)c1cc(-c2ccn(C(C)C)n2)n2ccccc12" .
Reply: 54.8

Ask: Please report the recorded Percent Effect for "CSCc1ccc(N2CCN(c3ccc(Cl)cn3)CC2)nc1" .
Reply: -11.59

Ask: Please report the recorded Percent Effect for "COc1cc(N2C[C@H]3CN(Cc4ccccn4)C[C@H]3C2)ncn1.O=C(O)C(F)(F)F" .
Reply: 8.566

Ask: Please report the recorded Percent Effect for "COCCCSc1ccc(NCc2scnc2C)cc1" .
Reply: 22.43
